# credit: the NIST ThermoML archive (doi:10.1021/je901020a)

- runParameters: 313.15 K; 101 kPa; Liquid; Pulse-echo method
measuredEndpoint: speed of sound (m/s)
Unit m/s implied. Number only.

Worked cases, speed of sound given:
1. Cc1cccc(C)c1 ... 1259
2. C1CCCCC1 ... 1182
3. Cc1ccc(C)cc1 ... 1248
4. C1CCCC1 ... 1130
5. Cc1cc(C)cc(C)c1 ... 1277

The record that follows has no speed of sound shown yet.
Notebook: CC1CCCCC1 , speed of sound read as 1150
